# test.method.notes: in vitro
# Parameters: species or system HB2, CCD841
# setup.conditions: human, hek293 cells
I'd appreciate it if you marked entries Condition met when viability at 48 h, 10 µM is lower than 80% and Condition not met when it is not.

Solved cases (4 shown):
- compound: "N#Cc1cccc(CNC(=O)CCl)c1 [PCM-0102936]"
  answer.label: "Condition not met"
- compound: "C=CC(=O)NCC1CCCS1 (stereo not drawn) [PCM-0102719]"
  answer.label: "Condition not met"
- compound: "Cl.O=C(CCl)N1CCN(c2ccccc2F)CC1 [PCM-0102373]"
  answer.label: "Condition met"
- compound: "COc1ccc(C2=CCN(C(=O)CCl)CC2)cc1 [PCM-0102929]"
  answer.label: "Condition met"

Consider now this further compound.
Task item: Is it true that viability at 48 h, 10 µM reported for CC12CCC(CC1=NNC(=O)CCl)C2(C)C (stereo not drawn) [PCM-0102498] is less than 80%?
Reply: Condition met

---

# tested.target: OTUB2 (OTUB2A) (Homo sapiens, UniProt Q96DC9)
# Construct: full length residues 1-234, E. coli BL21(DE3)-R3, His tag removed by TEV, construct 27312 Da
# Sequence (Q96DC9 1-234): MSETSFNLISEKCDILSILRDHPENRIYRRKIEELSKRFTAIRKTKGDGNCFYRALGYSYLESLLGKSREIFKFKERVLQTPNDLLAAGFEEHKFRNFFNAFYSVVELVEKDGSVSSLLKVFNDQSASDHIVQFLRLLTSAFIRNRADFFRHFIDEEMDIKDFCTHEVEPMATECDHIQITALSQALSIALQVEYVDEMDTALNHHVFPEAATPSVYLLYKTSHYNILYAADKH
# Set-up: Intact protein LC/MS covalent labelling, fragments in pools of five, 200 uM each, 4 °C
# setup.conditions: 24 h, 4 °C, pool of five; 200 µM; covalent
metric: OTUB2

Known results for molecules:
- molecule: "N#CSc1ccc(NC(=O)CCl)c(Br)c1"
  OTUB2: 0
- molecule: "CNC(=O)c1ccc(NC(=O)CCl)cc1"
  OTUB2: 0
- molecule: "C=CC(=O)Nc1ccnn1-c1ccccc1C"
  OTUB2: 0

Hey, can you go through the list below and give me OTUB2 for every item?
1. O=C(CCl)N1N=C(c2cccs2)CC1c1ccco1 (centres unmarked)
2. C=CC(=O)NCC1C2Cc3ccccc3C12 (centres unmarked)

Reply:
1. 0.06
2. 0.21

Hello, I would appreciate it if you could give OTUB2 for each entry below.
1. C=CC(=O)N1CCCC2(CNC(=O)O2)C1 (centres unmarked)
2. Cc1ccc2nc(NC(=O)CCl)sc2c1

Reply:
1: 0.13; 2: 0.18

Give measured OTUB2 for every item shown.
1. O=C(CCl)Nc1cc(F)ccc1C(=O)O
2. C=CC(=O)N1CCCC(Cn2ccnn2)C1 (centres unmarked)

Reply:
1: 0; 2: 0.09

Each of the following entries comes with a recorded value; kindly state OTUB2 for each.
1. Cc1ccccc1CN1CCN(C(=O)CCl)CC1.Cl
2. C=CC(=O)NCC1CCOC2(CCC2)C1 (centres unmarked)
3. C=CC(=O)N1CCCC1c1cc(C)on1 (centres unmarked)
4. Cc1ccc(C(=O)O)cc1NC(=O)CCl
5. C=CC(=O)NCc1nnc(C(C)(C)C)s1
6. O=C(NC1CCN(C(=O)CCl)CC1)c1ccccc1
7. O=C(CCl)Nc1ccc2c(c1)C(=O)c1ccccc1C2=O

Reply:
0
0
0.12
0
0.18
0.09
0

---

# test.method.notes: in vitro
# Design: species or system CCD841, HEK293
# setup.conditions: human, hb2 cells, read-out: HB-2 Cells Viability (%)
metric: viability at 48 h, 10 µM (%)
Give bare numbers, in %.

- molecule: "Cc1cc(SC#N)cc(C)c1NC(=O)CCl"
  readout.unit: "%"
  viability at 48 h, 10 µM: 27.3
- molecule: "COC(=O)C1CN(C(=O)CCl)c2ccccc2O1 (centres unmarked)"
  readout.unit: "%"
  viability at 48 h, 10 µM: 112
- molecule: "O=C(CCl)Nc1ccnn1C1CCCC1"
  readout.unit: "%"
  viability at 48 h, 10 µM: 41.3

For every item below, please supply its viability at 48 h, 10 µM.
1. Cc1ccc(NC(=O)NC(=O)CCl)cc1
2. CC1CCC(N(C)C(=O)CCl)CC1 (centres unmarked)
3. COC(=O)c1c(NC(=O)CCl)sc2c1CCC2

Reply:
1. 69.1
2. 39.2
3. 18.1

---

Exercise: for every item that follows, state its recorded viability at 48 h, 10 µM.
# test.method.notes: in vitro
# Parameters: species or system CCD841, HEK293
# setup.conditions: human, hb2 cells, read-out: HB-2 Cells Viability (%)
Give bare numbers, in %.

Study these solved cases before continuing.
- compound: "Cc1cc(CNC(=O)CCl)cc(C)c1O"
  assay.value: 85.7
- compound: "C=CC(=O)N1CCC(c2nccn2C)C1 (centres unmarked)"
  assay.value: 99.3
- compound: "CN(Cc1cc(Br)cs1)C(=O)CCl"
  assay.value: 5.1
- compound: "O=C(CCl)Nc1cccc(I)c1"
  assay.value: 12.7
- compound: "C=CC(=O)Nc1nc(-c2ccccc2C)cs1"
  assay.value: 107
- compound: "C=CC(=O)NCC1C2Cc3ccccc3C12 (centres unmarked)"
  assay.value: 94.3
- compound: "COC(=O)c1c(NC(=O)CCl)sc(C)c1C"
  assay.value: 62.5
- compound: "CC(C)CNC(=O)NC(=O)CCl"
  assay.value: 78

Count: 3. Required value per item: viability at 48 h, 10 µM.
1. CN(Cc1cccc(Cl)c1)C(=O)CCl
2. CC(c1ccccc1)N1CCN(C(=O)CCl)CC1.Cl (centres unmarked)
3. CN(Cc1cc(Cl)cc(Cl)c1)C(=O)CCl

Reply:
1. 18.9
2. 36.7
3. 8.3

---

# test.method.notes: in vitro
# Parameters: species or system CCD841, HEK293
# setup.conditions: human, hb2 cells, read-out: HB-2 Cells Viability (%)
Answer each item with its documented viability at 48 h, 10 µM.

For each of the items listed, what is its viability at 48 h, 10 µM?
1. CC(NC(=O)CCl)C12CC3CC(CC(C3)C1)C2 (stereo not drawn) [PCM-0102402]
2. CC(c1cc2ccccc2o1)N(C)C(=O)CCl (stereo not drawn) [PCM-0102971]
3. CCCNC(=O)NC(=O)CCl [PCM-0102702]
4. C=CC(=O)NC1CCN(c2ccccc2C(F)(F)F)C1 (stereo not drawn) [PCM-0102731]

Reply:
1: 67.3%; 2: 13.3%; 3: 91.6%; 4: 100%

Please state viability at 48 h, 10 µM for every compound in the list that follows.
1. O=C(CCl)NCC12CC3CC(CC(C3)C1)C2 [PCM-0102706]
2. C=CC(=O)N1CCCC(NS(C)(=O)=O)C1 (stereo not drawn) [PCM-0102522]

Reply:
1. 61.3%
2. 106%

---

# test.method.notes: in vitro
# Design: species or system CCD841, HEK293
# setup.conditions: human, hb2 cells, read-out: HB-2 Cells Viability (%)
metric: viability at 48 h, 10 µM (%)
Numbers only, in %.

Here are 10 compounds together with their reported answers.
- compound: "C=CC(=O)N(C)CC(=O)N1c2ccccc2NC(=O)CC1C (centres unmarked)"
  readout.unit: "%"
  viability at 48 h, 10 µM: 104
- compound: "CC(C)(C)NC(=O)CNC(=O)CCl"
  readout.unit: "%"
  viability at 48 h, 10 µM: 102
- compound: "COC(=O)c1ccccc1N(C)C(=O)CCl"
  readout.unit: "%"
  viability at 48 h, 10 µM: 92.1
- compound: "C=CC(=O)N1CCN(C(=O)Cc2c(C)noc2C)CC1"
  readout.unit: "%"
  viability at 48 h, 10 µM: 106
- compound: "C=CC(=O)N1CCC(N)CC1.Cl"
  readout.unit: "%"
  viability at 48 h, 10 µM: 109
- compound: "COc1ccc(N2CCN(C(=O)CCl)CC2)cc1"
  readout.unit: "%"
  viability at 48 h, 10 µM: 33.8
- compound: "C=CC(=O)N1CCN(C2CCCN(C3CCOCC3)C2=O)CC1 (centres unmarked)"
  readout.unit: "%"
  viability at 48 h, 10 µM: 106
- compound: "C=CC(=O)N1CCNC(=O)C1c1c(F)cccc1Cl (centres unmarked)"
  readout.unit: "%"
  viability at 48 h, 10 µM: 98.5
- compound: "Cc1ccccc1CC(=O)NNC(=O)CCl"
  readout.unit: "%"
  viability at 48 h, 10 µM: 90.9
- compound: "O=C(CCl)N1CCN(S(=O)(=O)c2ccc(F)cc2)CC1"
  readout.unit: "%"
  viability at 48 h, 10 µM: 78.8

Consider the record given below.
Task item: Query: viability at 48 h, 10 µM; subject: O=C(CCl)NCc1cccc(F)c1
Reply: 83.7
